- experiment: Antiproliferative activity against NHDF assessed as cell proliferation at 1 mM after 48 hrs by MTT assay relative to control
- condition-parameters: human, NHDF cells
metric: viability at 48 h, 1000 µM (%)
# number only, unit % dropped from output

Lookup: Need viability at 48 h, 1000 µM, item OO [HYDROGEN PEROXIDE]
Found: 15.5

* * *

- System: MCF7
- experiment: Antiproliferative activity against human MCF7 cells assessed as cell proliferation at 30 uM after 48 hrs by MTT assay relative to control
- Format: functional
- condition-parameters: MCF7, 48 h, read-out: Activity
metric: growth at 30 µM (%)
# number only, unit % dropped from output

Lookup: Need growth at 30 µM, item CCSc1ccccc1N(CC)CC
Found: 99.7

Lookup: Need growth at 30 µM, item CCN(C(C)=O)c1ccccc1OCc1ccccc1
Found: 88.8

Lookup: Need growth at 30 µM, item CCCCCCOc1ccccc1N(CC)C(C)=O
Found: 55.5

Lookup: Need growth at 30 µM, item CCCCCCN(C(C)=O)c1ccc(NC(C)=O)cc1SCc1ccc(C)cc1C
Found: 11.1

Lookup: Need growth at 30 µM, item CC(=O)Nc1ccc(N(Cc2ccc(C)cc2C)C(C)=O)c(SCc2ccc(C)cc2C)c1
Found: 15.3

Lookup: Need growth at 30 µM, item CS(=O)(=O)Nc1ccc([N+](=O)[O-])cc1Oc1ccccc1 [NIMESULIDE]
Found: 42.5

Lookup: Need growth at 30 µM, item CC(=O)Nc1ccc(N(CC2CCCCC2)C(C)=O)c(SCC2CCCCC2)c1
Found: 7.52

Lookup: Need growth at 30 µM, item CCCCCCSc1cc(NC(C)=O)ccc1N(Cc1ccc(C)cc1C)C(C)=O
Found: 6.86

Lookup: Need growth at 30 µM, item O=c1[nH]cc(F)c(=O)[nH]1 [FLUOROURACIL]
Found: 28.3

Lookup: Need growth at 30 µM, item CCCN(C(C)=O)c1ccccc1SC
Found: 95.3

Lookup: Need growth at 30 µM, item CC(=O)N(Cc1ccccc1C)c1ccccc1SCc1ccccc1C
Found: 13.7

Lookup: Need growth at 30 µM, item CCCCCCSc1cc([N+](=O)[O-])ccc1N(CCCCCC)C(C)=O
Found: 65.9

Lookup: Need growth at 30 µM, item CCCCCCSc1cc(NC(C)=O)ccc1N(CCCCCC)C(C)=O
Found: 36.6

Lookup: Need growth at 30 µM, item CC(=O)Nc1ccc(N(Cc2ccc(C)cc2C)C(C)=O)c(SCC2CCCCC2)c1
Found: 13.6

Lookup: Need growth at 30 µM, item CCSc1ccccc1N(Cc1ccccc1C)C(C)=O
Found: 77

Lookup: Need growth at 30 µM, item CCCCCCSc1ccccc1N(CC)C(C)=O
Found: 67.7

Lookup: Need growth at 30 µM, item CCCCCCN(C(C)=O)c1ccccc1SCCC
Found: 47.6

Lookup: Need growth at 30 µM, item CCOc1ccccc1N(CC)C(C)=O
Found: 93.5

Lookup: Need growth at 30 µM, item CCCCCCN(C(C)=O)c1ccc(NC(C)=O)cc1SCC1CCCCC1
Found: 35.9

Lookup: Need growth at 30 µM, item CC(=O)Nc1ccc(N(CC2CCCCC2)C(C)=O)c(SCc2ccc(C)cc2C)c1
Found: 9.08

Lookup: Need growth at 30 µM, item CCN(C(C)=O)c1ccccc1SCc1ccccc1
Found: 95.3

Lookup: Need growth at 30 µM, item CCCOc1ccccc1N(CC)C(C)=O
Found: 92.5

Lookup: Need growth at 30 µM, item CCCCCCSc1cc(NC(C)=O)ccc1N(CC1CCCCC1)C(C)=O
Found: 24.2

Lookup: Need growth at 30 µM, item CCSc1ccccc1N(Cc1ccccc1)C(C)=O
Found: 89.4

Lookup: Need growth at 30 µM, item CCOc1ccccc1N(Cc1ccccc1)C(C)=O
Found: 87.6

Hey, just so you know, these numbers are from ChEMBL document CHEMBL4043102.
